Reported pIC50 values follow for various compounds
molecular target: Insulin-like growth factor 2 receptor (IGF-1IR, cation-independent mannose-6-phosphate receptor, CI-MPR; hIGF-IIR) (Homo sapiens); assay: HTRF-based ternary complex inhibition assay for relative affinity of IGF-IIR ligands; settings: competition with MTAC probe for His-tagged hIGF-IIR; biotinylated IgG1; apparent binding affinity; read-out: TCF INH (HTRF) IC50
pIC50: −log10 of the molar value.

{"COMPOUND": "O=P(O)(O)CC[C@H]1OC(CCc2ccccc2)[C@@H](O)[C@@H](O)[C@@H]1O (stereo partly shown) [Compound A13]", "pIC50": "> 5.00"}
{"COMPOUND": "C#CCOc1cccc(CP(=O)(O)CC[C@H]2OC(Oc3ccc(OC)cc3)[C@@H](O)[C@@H](O)[C@@H]2O)c1 (stereo partly shown) [Compound A59]", "pIC50": "> 5.00"}
{"COMPOUND": "C#CCCOC1O[C@H](CCS(=O)(=O)Nc2ncccn2)[C@@H](O)[C@H](O)[C@@H]1O (stereo partly shown) [Compound A14]", "pIC50": "3.52 to 4.00"}
{"COMPOUND": "CC(=O)NS(=O)(=O)OC[C@H]1O[C@H](Oc2ccccc2)[C@@H](O)[C@@H](O)[C@@H]1O [Compound A4]", "pIC50": "3.52 to 4.00"}
{"COMPOUND": "O=P(O)(O)CC[C@H]1O[C@H](c2cn(-c3ccccc3)nn2)[C@@H](O)[C@@H](O)[C@@H]1O [Compound A84]", "pIC50": "> 5.00"}
{"COMPOUND": "NC[C@H]1O[C@H](Oc2ccccc2)[C@@H](O)[C@@H](O)[C@@H]1O [Compound A2]", "pIC50": "4.00 to 5.00"}
{"COMPOUND": "COc1ccc(OC2O[C@H](CCP(=O)(O)CC#N)[C@@H](O)[C@H](O)[C@@H]2O)cc1 (stereo partly shown) [Compound A48]", "pIC50": "4.00 to 5.00"}
{"COMPOUND": "COc1ccc(OC2O[C@H](CCP(=O)(O)C(O)c3ccccc3)[C@@H](O)[C@H](O)[C@@H]2O)cc1 (stereo partly shown) [Compound A74]", "pIC50": "> 5.00"}
{"COMPOUND": "C=CCP(=O)(O)CC[C@H]1OC(Oc2ccc(OC)cc2)[C@@H](O)[C@@H](O)[C@@H]1O (stereo partly shown) [Compound A52]", "pIC50": "4.00 to 5.00"}
{"COMPOUND": "CO[C@H]1O[C@H](CCS(=O)(=O)Nc2ncccn2)[C@@H](O)[C@H](O)[C@@H]1O [Compound A9]", "pIC50": "3.52 to 4.00"}
{"COMPOUND": "COc1ccc(OC2O[C@H](CCP(=O)(O)Cc3ccccc3)[C@@H](O)[C@H](O)[C@@H]2O)cc1 (stereo partly shown) [Compound A81]", "pIC50": "> 5.00"}
{"COMPOUND": "CCCP(=O)(O)CC[C@H]1OC(Oc2ccc(OC)cc2)[C@@H](O)[C@@H](O)[C@@H]1O (stereo partly shown) [Compound A57]", "pIC50": "> 5.00"}
{"COMPOUND": "O=P(O)(O)CC[C@H]1O[C@H](Oc2ccc3c(c2)Cc2ccccc2-3)[C@@H](O)[C@@H](O)[C@@H]1O [Compound A19]", "pIC50": "> 5.00"}
{"COMPOUND": "COc1ccc(OC2O[C@H](CCP(=O)(O)CC3CC3(F)F)[C@@H](O)[C@H](O)[C@@H]2O)cc1 (stereo partly shown) [Compound A58]", "pIC50": "> 5.00"}
{"COMPOUND": "O=P(O)(CC[C@H]1O[C@H](Oc2ccccc2)[C@@H](O)[C@@H](O)[C@@H]1O)Cc1ccccc1O [Compound A46]", "pIC50": "> 5.00"}
{"COMPOUND": "COc1ccc(O[C@H]2O[C@H](CCP(=O)(O)Cc3c(F)ccc(F)c3F)[C@@H](O)[C@H](O)[C@@H]2O)cc1 [Compound A54]", "pIC50": "> 5.00"}
{"COMPOUND": "COc1ccc(OC2O[C@H](CCP(=O)(O)CC#C[Si](C)(C)C)[C@@H](O)[C@H](O)[C@@H]2O)cc1 (stereo partly shown) [Compound A75]", "pIC50": "4.00 to 5.00"}
{"COMPOUND": "O=P(O)(O)CC[C@H]1O[C@H](c2cn(CCc3ccccc3)nn2)[C@@H](O)[C@@H](O)[C@@H]1O [Compound A17]", "pIC50": "> 5.00"}
{"COMPOUND": "C#CCP(=O)(O)CC[C@H]1OC(Oc2ccc(OC)cc2)[C@@H](O)[C@@H](O)[C@@H]1O (stereo partly shown) [Compound A77]", "pIC50": "4.00 to 5.00"}
